- EXPERIMENTAL_SYSTEM: αvβ3 receptor (αvβ3 from human A375 cells) (Homo sapiens, UniProt P05106+P06756)
- Construct: αvβ3 from human A375 cells was purified analogously to a procedure which was described by Wong et al; endogenous in cells; host or cells: human A375 cells; the receptor was purified from the cells and used detergent-solubilised (n-octyl-glucopyranoside)
- Sequence (P06756 31-889 limits assumed): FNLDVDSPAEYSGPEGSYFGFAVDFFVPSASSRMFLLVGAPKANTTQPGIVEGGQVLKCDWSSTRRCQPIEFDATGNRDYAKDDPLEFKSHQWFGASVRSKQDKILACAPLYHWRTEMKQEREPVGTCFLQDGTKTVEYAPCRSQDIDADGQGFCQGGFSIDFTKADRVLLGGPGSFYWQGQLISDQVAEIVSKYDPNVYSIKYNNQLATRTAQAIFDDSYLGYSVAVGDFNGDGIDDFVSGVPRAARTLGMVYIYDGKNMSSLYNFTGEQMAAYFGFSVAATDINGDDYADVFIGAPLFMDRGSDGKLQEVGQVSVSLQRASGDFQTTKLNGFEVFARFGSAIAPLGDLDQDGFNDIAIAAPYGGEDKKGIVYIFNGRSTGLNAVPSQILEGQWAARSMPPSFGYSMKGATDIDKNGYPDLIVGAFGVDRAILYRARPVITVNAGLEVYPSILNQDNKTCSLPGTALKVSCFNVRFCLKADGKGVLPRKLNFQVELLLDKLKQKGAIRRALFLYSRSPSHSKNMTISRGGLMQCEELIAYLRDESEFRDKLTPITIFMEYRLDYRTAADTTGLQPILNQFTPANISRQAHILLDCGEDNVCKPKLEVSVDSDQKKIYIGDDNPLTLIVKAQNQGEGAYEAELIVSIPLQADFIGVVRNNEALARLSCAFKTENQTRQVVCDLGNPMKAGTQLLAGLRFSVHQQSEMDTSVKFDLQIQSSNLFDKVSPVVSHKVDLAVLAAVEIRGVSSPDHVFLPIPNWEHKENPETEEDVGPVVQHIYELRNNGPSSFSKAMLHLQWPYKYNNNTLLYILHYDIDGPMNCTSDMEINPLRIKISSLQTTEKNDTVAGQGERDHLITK
- Sequence (P06756 891-1048 partner limits assumed): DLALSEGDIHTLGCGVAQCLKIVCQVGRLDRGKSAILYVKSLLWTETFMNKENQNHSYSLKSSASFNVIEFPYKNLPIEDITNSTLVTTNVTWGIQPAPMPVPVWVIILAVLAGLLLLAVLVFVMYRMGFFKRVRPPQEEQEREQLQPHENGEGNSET
- Sequence (P05106 27-788): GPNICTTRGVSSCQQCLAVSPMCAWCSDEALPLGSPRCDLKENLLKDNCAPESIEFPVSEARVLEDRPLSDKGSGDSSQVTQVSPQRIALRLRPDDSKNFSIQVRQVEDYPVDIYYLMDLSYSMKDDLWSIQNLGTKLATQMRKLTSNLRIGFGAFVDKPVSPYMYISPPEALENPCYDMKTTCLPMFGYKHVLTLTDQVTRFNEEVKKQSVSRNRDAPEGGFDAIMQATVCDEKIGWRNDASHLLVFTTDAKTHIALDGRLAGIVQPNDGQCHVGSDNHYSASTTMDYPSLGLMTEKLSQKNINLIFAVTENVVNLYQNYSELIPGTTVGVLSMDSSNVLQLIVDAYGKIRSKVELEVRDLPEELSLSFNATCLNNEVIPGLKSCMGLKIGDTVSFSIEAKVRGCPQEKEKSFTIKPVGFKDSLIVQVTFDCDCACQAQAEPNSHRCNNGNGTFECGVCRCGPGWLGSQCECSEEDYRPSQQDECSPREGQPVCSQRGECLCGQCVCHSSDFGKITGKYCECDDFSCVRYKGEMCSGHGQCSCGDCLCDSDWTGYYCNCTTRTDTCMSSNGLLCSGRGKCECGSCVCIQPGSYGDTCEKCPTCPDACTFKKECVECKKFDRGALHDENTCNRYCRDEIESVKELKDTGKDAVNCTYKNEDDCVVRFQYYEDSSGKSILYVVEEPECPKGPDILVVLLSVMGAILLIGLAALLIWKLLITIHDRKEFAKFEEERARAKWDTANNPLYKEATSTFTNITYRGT
- PROTOCOL_DETAILS: αvβ3 binding test (echistatin displacement, WGA SPA beads)
- MEASUREMENT_SETUP: αvβ3 purified from human A375 cells; labelled echistatin; read-out: IC50 values of the binding to the αvβ3 receptor
- Experimental: αvβ3 from human A375 cells was purified analogously to a procedure which was described by Wong et al. (Molecular Pharmacology, 50, 529–537 (1996)). […] After 16 hours at room temperature, the samples were measured in a scintillation measuring apparatus (Wallac 1450).
ASSAY_ENDPOINT: IC50

Entry CC[C@@]1(OC(=O)[C@@H](NC(=O)CC[C@H](NC(=O)CC(NC(=O)CNC(=O)c2cccc(NC(=N)N)c2)c2ccccc2)C(=O)O)C(C)C)C(=O)OCc2c1cc1n(c2=O)Cc2cc3ccccc3nc2-1 (stereo partly drawn) [Example 1.2] needs its IC50 filled in; supply it.
679 nM

Entry CC[C@@]1(OC(=O)[C@@H](NC(=O)Nc2cccc(-c3cccc(S(=O)(=O)NC(CC(=O)O)c4ccccc4)c3)c2)C(C)C)C(=O)OCc2c1cc1n(c2=O)Cc2cc3ccccc3nc2-1 (stereo partly drawn) [Example 2.13] needs its IC50 filled in; supply it.
97 nM

Entry CC[C@@]1(OC(=O)[C@@H](NC(=O)[C@H](CCC(=O)O)NC(=S)Nc2cccc(C(=O)NCC(=O)NC(CC(=O)O)c3ccccc3)c2)C(C)C)C(=O)OCc2c1cc1n(c2=O)Cc2cc3ccccc3nc2-1 (stereo partly drawn) [Example 2.2] needs its IC50 filled in; supply it.
1500 nM

Entry CC[C@@]1(OC(=O)[C@@H](NC(=O)[C@H](CCCCN)NC(=S)Nc2ccc(S(=O)(=O)NC(CC(=O)O)c3cccc(NS(=O)(=O)c4cccc(NC(=N)N)c4)c3)cc2)C(C)C)C(=O)OCc2c1cc1n(c2=O)Cc2cc3ccccc3nc2-1 (stereo partly drawn) [Example 3.4] needs its IC50 filled in; supply it.
65 nM

Entry CC[C@@]1(OC(=O)C(NC(=O)C(Cc2cnc[nH]2)NC(=S)Nc2cccc(-c3ccc(C[C@H](NS(=O)(=O)CC45CCC(CC4=O)C5(C)C)C(=O)O)cc3)c2)C(C)C)C(=O)OCc2c1cc1n(c2=O)Cc2cc3ccccc3nc2-1 (stereo partly drawn) [Example 2.4] needs its IC50 filled in; supply it.
110 nM

Entry CCC1(OC(=O)[C@@H](NC(=O)[C@H](Cc2c[nH]cn2)NC(=O)Nc2cccc(-c3ccc(S(=O)(=O)NC(CC(=O)O)c4ccccc4)cc3)c2)C(C)C)C(=O)OCc2c1cc1n(c2=O)Cc2cc3ccccc3nc2-1 (stereo partly drawn) [Example 2.11] needs its IC50 filled in; supply it.
197 nM

Entry CC[C@@]1(OC(=O)[C@@H](NC(=O)[C@H](CCCCNC(=O)CC(NC(=O)CNC(=O)c2cccc(NC(=N)N)c2)c2ccccc2)NC(=S)Nc2ccccc2)C(C)C)C(=O)OCc2c1cc1n(c2=O)Cc2cc3ccccc3nc2-1 (stereo partly drawn) [Example 1.1] needs its IC50 filled in; supply it.
873 nM

Entry CC[C@@]1(OC(=O)[C@@H](NC(=O)Nc2cccc(-c3ccc(C[C@H](NS(=O)(=O)CC45CCC(CC4=O)C5(C)C)C(=O)O)cc3)c2)C(C)C)C(=O)OCc2c1cc1n(c2=O)Cc2cc3ccccc3nc2-1 (stereo partly drawn) [Example 2.8] needs its IC50 filled in; supply it.
83 nM

Entry CC[C@@]1(OC(=O)[C@@H](NC(=O)[C@H](CCCCN)NC(=S)Nc2cccc(C(=O)NCC(=O)NC(CC(=O)O)c3ccccc3)c2)C(C)C)C(=O)OCc2c1cc1n(c2=O)Cc2cc3ccccc3nc2-1 (stereo partly drawn) [Example 2.1] needs its IC50 filled in; supply it.
1450 nM
